So I've got a bunch of compounds here, and I need their log10 of IC50 values.
Scale: log10; quantity: IC50; unit before log: nM

Record for CN(C)c1cccc(NC(=O)N[C@H]2N=C(c3ccccn3)c3ccccc3N(CC(=O)C(C)(C)C)C2=O)c1 under target or system Cholecystokinin receptor type A (Rattus norvegicus, UniProt P30551): log10 of IC50 reported as 2.76

The compound CC(C)(C)C(=O)CN1C(=O)C(NC(=O)Nc2cccc(C(=O)O)c2)N=C(c2ccccc2)c2ccccc21 (stereo unspecified) , tested on Cholecystokinin receptor type A (Rattus norvegicus, UniProt P30551), showed log10 of IC50 of 3.31

Entry Cc1cccc(NC(=O)N[C@@H]2N=C(c3ccccc3)c3ccccc3N(CC(=O)C(C)(C)C)C2=O)c1 under Cholecystokinin receptor type A (Rattus norvegicus, UniProt P30551) had log10 of IC50 of 2.05

Entry CC(C)(C)C(=O)CN1C(=O)[C@H](NC(=O)Nc2cccc(N3CCCC3)c2)N=C(c2ccccn2)c2ccccc21 , tested on Cholecystokinin receptor type A (Rattus norvegicus, UniProt P30551), has a reported log10 of IC50 of 2.40

I looked up CC(C)(C)C(=O)CN1C(=O)C(NC(=O)Nc2cccc(NC=O)c2)N=C(c2ccccc2)c2ccccc21 (stereo unspecified) and its log10 of IC50 for Cholecystokinin receptor type A (Rattus norvegicus, UniProt P30551) was 2.75

Record CC(C)(C)C(=O)CN1C(=O)[C@H](NC(=O)Nc2cccc(N3CCCCC3)c2)N=C(c2ccccn2)c2ccccc21 / Cholecystokinin receptor type A (Rattus norvegicus, UniProt P30551), log10 of IC50 recorded as 2.97

----------
For each entry below, report its IC50 value.
MEASURED TARGET: UniProt P30551
Sequence (P30551 whole entry): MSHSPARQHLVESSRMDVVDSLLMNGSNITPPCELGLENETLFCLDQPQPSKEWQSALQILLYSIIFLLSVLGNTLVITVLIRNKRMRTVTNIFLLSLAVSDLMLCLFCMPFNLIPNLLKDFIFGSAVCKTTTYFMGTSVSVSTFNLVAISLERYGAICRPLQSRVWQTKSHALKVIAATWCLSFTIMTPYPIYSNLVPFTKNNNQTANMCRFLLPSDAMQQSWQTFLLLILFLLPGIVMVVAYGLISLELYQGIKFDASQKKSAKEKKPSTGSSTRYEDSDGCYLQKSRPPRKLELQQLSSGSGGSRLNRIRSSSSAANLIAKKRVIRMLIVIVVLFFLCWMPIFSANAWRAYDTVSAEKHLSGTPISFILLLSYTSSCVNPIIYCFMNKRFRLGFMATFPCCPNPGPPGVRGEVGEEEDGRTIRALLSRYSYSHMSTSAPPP
For clarity, give the value followed by its unit.

Reported IC50 of CC(C)(C)C(=O)CN1C(=O)[C@H](NC(=O)Nc2cccc(N3CCCC3)c2)N=C(c2ccccc2)c2ccccc21 : 157 nM

IC50 reported for this compound CC(C)(C)C(=O)CN1C(=O)C(NC(=O)Nc2cccc(C#N)c2)N=C(c2ccccc2)c2ccccc21 (stereo not drawn) : 700 nM

Recorded IC50 (compound CCN(CC)c1cccc(NC(=O)N[C@@H]2N=C(c3ccccc3)c3ccccc3N(CC(=O)C(C)(C)C)C2=O)c1 ): 558 nM

Per the record, Cc1cccc(NC(=O)N[C@@H]2N=C(c3ccccn3)c3ccccc3N(CC(=O)C(C)(C)C)C2=O)c1 has IC50 of 470 nM

GET /value?item= CC(C)(C)C(=O)CN1C(=O)C(NC(=O)Nc2cccc([N+](=O)[O-])c2)N=C(c2ccccc2)c2ccccc21 (stereo not drawn) &field=IC50 returns 589 nM

Recorded result, CC(C)(C)C(=O)CN1C(=O)[C@H](NC(=O)Nc2cccc(N)c2)N=C(c2ccccn2)c2ccccc21 , IC50: 1820 nM

Sample CN(C)c1cccc(NC(=O)N[C@@H]2N=C(c3ccccc3)c3ccccc3N(CC(=O)C(C)(C)C)C2=O)c1 ; IC50 observed: 89 nM

CCN(CC)c1cccc(NC(=O)N[C@@H]2N=C(c3ccccn3)c3ccccc3N(CC(=O)C(C)(C)C)C2=O)c1 has a reported IC50 of 301 nM

----------
MEASURED TARGET: Cholecystokinin receptor (Rattus norvegicus) (UniProt P30551+P30553)
ASSAY TEXT: Ratio of inhibitory concentration; CCK-A receptor to CCK-B receptor
Assay type: protein assay
Criterion: Ratio strictly less than 900. Met: y. Not met: n.

Req: Answer whether the compound CCN(CC)c1cccc(NC(=O)N[C@@H]2N=C(c3ccccn3)c3ccccc3N(CC(=O)C(C)(C)C)C2=O)c1 has Ratio strictly less than 900
Resp: n

Req: Decide: Ratio of Cc1cccc(NC(=O)N[C@@H]2N=C(c3ccccc3)c3ccccc3N(CC(=O)c3ccccc3C)C2=O)c1 strictly below 900?
Resp: n

Req: Report whether reported Ratio is lower than 900 (strictly) for CN(C)c1cccc(NC(=O)N[C@@H]2N=C(c3ccccn3)c3ccccc3N(CC(=O)C(C)(C)C)C2=O)c1
Resp: y

Req: In plain terms, does CNc1cccc(NC(=O)N[C@@H]2N=C(c3ccccn3)c3ccccc3N(CC(=O)C(C)(C)C)C2=O)c1 [NETAZEPIDE] come in under 900 for Ratio?
Resp: n

Req: Ratio strictly < 900 for this compound? CC(C)(C)C(=O)CN1C(=O)[C@H](NC(=O)Nc2cccc(N)c2)N=C(c2ccccn2)c2ccccc21
Resp: n

Req: Hello, is Ratio of the following compound strictly smaller than 900? CC(C)(C)C(=O)CN1C(=O)C(NC(=O)Nc2cccc([N+](=O)[O-])c2)N=C(c2ccccc2)c2ccccc21 (centres undefined)
Resp: n

Req: Would you kindly verify if Ratio of CNc1cccc(NC(=O)N[C@@H]2N=C(c3ccccc3)c3ccccc3N(CC(=O)C(C)(C)C)C2=O)c1 is strictly less than 900?
Resp: n

Req: # TODO verify Ratio < 900 strictly for this compound: CN(C)c1cccc(NC(=O)N[C@H]2N=C(c3ccccn3)c3ccccc3N(CC(=O)C(C)(C)C)C2=O)c1
Resp: y

Req: Field: below-cutoff. Rule: recorded Ratio strictly less than 900. Subject: CC(C)(C)C(=O)CN1C(=O)[C@H](NC(=O)Nc2cccc(N)c2)N=C(c2ccccc2)c2ccccc21
Resp: n

Req: Confirm or reject: Ratio of CC(C)(C)C(=O)CN1C(=O)C(NC(=O)Nc2cccc(NC=O)c2)N=C(c2ccccc2)c2ccccc21 (centres undefined) lies strictly below 900
Resp: n

Req: Is Ratio strictly under 900 for the entry CC(C)(C)C(=O)CN1C(=O)[C@H](NC(=O)Nc2cccc(N3CCCC3)c2)N=C(c2ccccn2)c2ccccc21 ?
Resp: n

Req: Hi there! Is Ratio for CC(C)(C)C(=O)CN1C(=O)C(NC(=O)Nc2cccc(C#N)c2)N=C(c2ccccc2)c2ccccc21 (centres undefined) below 900, do you know?
Resp: y

Req: Find out if reported Ratio for Cc1cccc(NC(=O)N[C@@H]2N=C(c3ccccc3)c3ccccc3N(CC(=O)C(C)(C)C)C2=O)c1 is less than 900
Resp: y

Req: Is the reported Ratio for Cc1cccc(NC(=O)N[C@@H]2N=C(c3ccccn3)c3ccccc3N(CC(=O)C(C)(C)C)C2=O)c1 strictly below 900?
Resp: n

Req: Record CC(C)(C)C(=O)CN1C(=O)C(NC(=O)Nc2cccc(C(=O)O)c2)N=C(c2ccccc2)c2ccccc21 (centres undefined) : is its Ratio strictly below 900?
Resp: y

Req: Item CN(C)c1cccc(NC(=O)N[C@@H]2N=C(c3ccccc3)c3ccccc3N(CC(=O)C(C)(C)C)C2=O)c1 : Ratio beneath 900, strictly?
Resp: y

Req: Field: below-cutoff. Rule: recorded Ratio strictly less than 900. Subject: CC(C)(C)C(=O)CN1C(=O)[C@H](NC(=O)Nc2cccc(N3CCCCC3)c2)N=C(c2ccccn2)c2ccccc21
Resp: n

Req: Please indicate whether the reported Ratio of CCN(CC)c1cccc(NC(=O)N[C@@H]2N=C(c3ccccc3)c3ccccc3N(CC(=O)C(C)(C)C)C2=O)c1 is strictly below 900.
Resp: n

----------
Exercise: state measured IC50 for each of the compounds provided.
Use pM as the unit, but write only the number.

Entry CC(C)(C)C(=O)CN1C(=O)[C@H](NC(=O)Nc2cccc(N3CCCCC3)c2)N=C(c2ccccn2)c2ccccc21 : IC50 on Gastrin/cholecystokinin type B receptor (Rattus norvegicus, UniProt P30553) = 840

Per the reported Gastrin/cholecystokinin type B receptor (Rattus norvegicus, UniProt P30553) data, CC(C)(C)C(=O)CN1C(=O)C(NC(=O)Nc2cccc(C(=O)O)c2)N=C(c2ccccc2)c2ccccc21 (stereo not drawn) has IC50 of 3290

Lab entry: Gastrin/cholecystokinin type B receptor (Rattus norvegicus, UniProt P30553) assay, compound CC(C)(C)C(=O)CN1C(=O)C(NC(=O)Nc2cccc([N+](=O)[O-])c2)N=C(c2ccccc2)c2ccccc21 (stereo not drawn) , IC50 = 160

Measured on Gastrin/cholecystokinin type B receptor (Rattus norvegicus, UniProt P30553), CN(C)c1cccc(NC(=O)N[C@@H]2N=C(c3ccccc3)c3ccccc3N(CC(=O)C(C)(C)C)C2=O)c1 has a documented IC50 of 210

The measured IC50 that CC(C)(C)C(=O)CN1C(=O)C(NC(=O)Nc2cccc(NC=O)c2)N=C(c2ccccc2)c2ccccc21 (stereo not drawn) showed for Gastrin/cholecystokinin type B receptor (Rattus norvegicus, UniProt P30553) is 590

Gastrin/cholecystokinin type B receptor (Rattus norvegicus, UniProt P30553) assay, compound Cc1cccc(NC(=O)N[C@@H]2N=C(c3ccccc3)c3ccccc3N(CC(=O)C(C)(C)C)C2=O)c1 , recorded IC50 = 520

Lab note: compound CC(C)(C)C(=O)CN1C(=O)[C@H](NC(=O)Nc2cccc(N)c2)N=C(c2ccccn2)c2ccccc21 tested on Gastrin/cholecystokinin type B receptor (Rattus norvegicus, UniProt P30553); recorded IC50 was 430

Record for CC(C)(C)C(=O)CN1C(=O)[C@H](NC(=O)Nc2cccc(N3CCCC3)c2)N=C(c2ccccc2)c2ccccc21 under target or system Gastrin/cholecystokinin type B receptor (Rattus norvegicus, UniProt P30553): IC50 reported as 170

Summary: CCN(CC)c1cccc(NC(=O)N[C@@H]2N=C(c3ccccc3)c3ccccc3N(CC(=O)C(C)(C)C)C2=O)c1 , Gastrin/cholecystokinin type B receptor (Rattus norvegicus, UniProt P30553), IC50 = 140

Value sought: IC50, system Gastrin/cholecystokinin type B receptor (Rattus norvegicus, UniProt P30553), item CN(C)c1cccc(NC(=O)N[C@H]2N=C(c3ccccn3)c3ccccc3N(CC(=O)C(C)(C)C)C2=O)c1 . Result: 1260

The compound CCN(CC)c1cccc(NC(=O)N[C@@H]2N=C(c3ccccn3)c3ccccc3N(CC(=O)C(C)(C)C)C2=O)c1 on Gastrin/cholecystokinin type B receptor (Rattus norvegicus, UniProt P30553): IC50 was 110

The measured IC50 that CC(C)(C)C(=O)CN1C(=O)[C@H](NC(=O)Nc2cccc(N3CCCC3)c2)N=C(c2ccccn2)c2ccccc21 showed for Gastrin/cholecystokinin type B receptor (Rattus norvegicus, UniProt P30553) is 110

Recorded IC50 for CC(C)(C)C(=O)CN1C(=O)C(NC(=O)Nc2cccc(C#N)c2)N=C(c2ccccc2)c2ccccc21 (stereo not drawn) on Gastrin/cholecystokinin type B receptor (Rattus norvegicus, UniProt P30553) was 1290
